melting point values, listed per item

compound=CC(=O)N(C)Cc1ccc(CCn2cnc3cc(-c4ccc(Cl)cc4)sc3c2=O)cc1 readout="melting point" observed_measurement="176 to 178 °C"

Query :: GET /values?readout=melting point&item= CC(=O)N(C)Cc1ccc(C(=O)Cn2cnc3cc(-c4ccc(Cl)cc4)sc3c2=O)cc1
Result :: 250 to 251 °C

Query :: Similarly, CN(C)C(=S)N(C)Cc1ccc(CCn2cnc3cc(-c4ccc(Cl)cc4)sc3c2=O)cc1 ?
Result :: 156 to 158 °C

Query :: Similarly, CC(c1ccc(CCn2cnc3cc(-c4ccc(Cl)cc4)sc3c2=O)cc1)N1CC[C@H](F)C1 (some centres unmarked) ?
Result :: 160 to 163 °C

Query :: Similarly, O=C(Cn1cnc2cc(-c3ccc(Cl)cc3)sc2c1=O)c1ccc2c(c1)CCN(C(=O)C(F)(F)F)CC2 ?
Result :: 285 to 287 °C

Query :: Similarly, CN(Cc1ccc(CCn2cnc3cc(-c4ccc(Cl)cc4)sc3c2=O)cc1)C(=O)OC(C)(C)C ?
Result :: 206 to 209 °C

Query :: Similarly, CN(CC(=O)OC(C)(C)C)Cc1ccc(CCn2cnc3cc(-c4ccc(Cl)cc4)sc3c2=O)cc1 ?
Result :: 130 °C

Query :: Similarly, CNC1Cc2ccc(C(=O)Cn3cnc4cc(-c5ccc(Cl)cc5)sc4c3=O)cc2C1 (centres unmarked) ?
Result :: 226 to 229 °C

---

- Test target: SLC-1 expression CHO cell membrane fraction (MCH receptor) (Homo sapiens)
- Construct: expressed in transfected cells; host or cells: CHO cells (human SLC-1 clone 57 / rat SLC-1 clone 44), membrane fraction
- Sequence (Q99705 whole entry): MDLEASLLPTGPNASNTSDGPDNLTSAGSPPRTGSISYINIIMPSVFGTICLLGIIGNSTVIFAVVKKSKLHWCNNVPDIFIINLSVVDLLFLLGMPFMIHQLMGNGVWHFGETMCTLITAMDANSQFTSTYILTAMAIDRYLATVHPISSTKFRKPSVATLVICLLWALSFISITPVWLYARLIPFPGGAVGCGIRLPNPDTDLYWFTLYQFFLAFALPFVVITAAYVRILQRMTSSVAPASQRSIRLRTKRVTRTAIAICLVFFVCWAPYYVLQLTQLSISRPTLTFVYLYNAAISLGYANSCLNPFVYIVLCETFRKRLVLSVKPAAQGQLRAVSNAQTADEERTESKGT
- Procedure text: Antagonistic activity of test compound using GTPγS binding assay
- Type: biochemical, human/rat
- Condition details: [35S]-GTPγS binding stimulated by MCH, 25° C., 1 hr, read-out: inhibitory activity (IC50: nM)
Where a name gives a salt, the structure may show the parent alone.
Readout: IC50 (nM)

a: O=C1CCCN1Cc1ccc(CCn2cnc3cc(-c4ccc(Cl)cc4)sc3c2=O)cc1
b: CN(C)C(=S)N(C)Cc1ccc(CCn2cnc3cc(-c4ccc(Cl)cc4)sc3c2=O)cc1
c: CNCc1ccc(CCn2cnc3cc(-c4ccc(Cl)cc4)sc3c2=O)cc1 [Example 4, dihydrochloride]
Query :: Please list these molecules in decreasing order of IC50. Put the labels in the requested order and list them out.
Result :: b, a, c

---

Readout: melting point

Solved cases below.
compound="O=C1CCCN1Cc1ccc(CCn2cnc3cc(-c4ccc(Cl)cc4)sc3c2=O)cc1 [Example 11]" observed_measurement="218 to 221 °C"
compound="CNC(=O)CN(C)Cc1ccc(CCn2cnc3cc(-c4ccc(Cl)cc4)sc3c2=O)cc1 [Example 31]" observed_measurement="146 to 149 °C"
compound="CCN1CCN(Cc2ccc(CCn3cnc4cc(-c5ccc(Cl)cc5)sc4c3=O)cc2)C(=O)C1=O [Example 34]" observed_measurement="285 to 288 °C"
compound="CN(Cc1ccc(CCn2cnc3cc(-c4ccc(Cl)cc4)sc3c2=O)cc1)C(=O)CC(C)(C)C [Example 5]" observed_measurement="181 °C"
compound="O=c1c2sc(-c3ccc(Cl)cc3)cc2ncn1CCc1ccc(CN2CCCC2)cc1 [Example 1]" observed_measurement="163 to 166 °C"

Query :: GET /values?readout=melting point&item= CC(C)(C)OC(=O)N1CCN(Cc2ccc(CCn3cnc4cc(-c5ccc(Cl)cc5)sc4c3=O)cc2)C(=O)C1 [Example 37]
Result :: 165 to 170 °C

Query :: Similarly, O=C1CCCCN1Cc1ccc(CCn2cnc3cc(-c4ccc(Cl)cc4)sc3c2=O)cc1 [Example 25] ?
Result :: 199 to 201 °C

Query :: Similarly, CC(=O)N(C)N(C(=O)OC(C)(C)C)c1ccc(CCn2cnc3cc(-c4ccc(Cl)cc4)sc3c2=O)cc1 [Example 20] ?
Result :: 193 to 194 °C

Origin of the recorded values: patent US7989445B2
